system_tested: T1, ECD of rec. EGFR (human, UniProt P00533 25-645)
T1 construct: extracellular domain; also called human epidermal factor receptor (EGFR)
protocol: SPR (BIAcore), chip coated with ECD of rec. EGFR
attribute_measured: Kd (nM)
Give the value in nM but do not write nM after it.

Humanized LA22 (H4 + h2) (antibody, human IgG1, V domains shown, Human IgG1 / kappa constant regions; also called H4-LA22 / h2-LA22) VH: EVQLVESGGGLVQPGGSLRLSCASNEYEFPSHDMSWVRQTPGKRLEWVSAITSDGISTYYPDTMERRFTISRDNSKNTLYLQMSSLRAEDTAVYYCARHDWDEGFASWGQGTLVTVSS VL: DVVMTQSPLSLPVTLGQPASISCRSSQSLVHSNGNTYLHWYQQRPGQSPRLLIYKVSNRFSGVPDRFSGSGSGTDFTLKISRVEAEDVGIYFCSQSSHVPPAFGGGTKLEIK ... 15.4

Next:
[Q] Specify reported Kd for the binder shown: Humanized LA22 (H0 + h2) (antibody, human IgG1, V domains shown, Human IgG1 / kappa constant regions; also called HO-LA22 / h2-LA22) VH: EVQLVESGGGLVQPGGSLRLSCAASEYEFPSHDMSWVRQAPGKGLEWVSAITSDGISTYYPDTMERRFTISRDNSKNTLYLQMNSLRAEDTAVYYCARHDWDEGFASWGQGTLVTVSS VL: DVVMTQSPLSLPVTLGQPASISCRSSQSLVHSNGNTYLHWYQQRPGQSPRLLIYKVSNRFSGVPDRFSGSGSGTDFTLKISRVEAEDVGIYFCSQSSHVPPAFGGGTKLEIK
[A] 13.2

The reported measurements were obtained from patent US20190010227A1.
